# assayed target: FGFR3 (UniProt P22607)
# Sequence (P22607 whole entry, looked up): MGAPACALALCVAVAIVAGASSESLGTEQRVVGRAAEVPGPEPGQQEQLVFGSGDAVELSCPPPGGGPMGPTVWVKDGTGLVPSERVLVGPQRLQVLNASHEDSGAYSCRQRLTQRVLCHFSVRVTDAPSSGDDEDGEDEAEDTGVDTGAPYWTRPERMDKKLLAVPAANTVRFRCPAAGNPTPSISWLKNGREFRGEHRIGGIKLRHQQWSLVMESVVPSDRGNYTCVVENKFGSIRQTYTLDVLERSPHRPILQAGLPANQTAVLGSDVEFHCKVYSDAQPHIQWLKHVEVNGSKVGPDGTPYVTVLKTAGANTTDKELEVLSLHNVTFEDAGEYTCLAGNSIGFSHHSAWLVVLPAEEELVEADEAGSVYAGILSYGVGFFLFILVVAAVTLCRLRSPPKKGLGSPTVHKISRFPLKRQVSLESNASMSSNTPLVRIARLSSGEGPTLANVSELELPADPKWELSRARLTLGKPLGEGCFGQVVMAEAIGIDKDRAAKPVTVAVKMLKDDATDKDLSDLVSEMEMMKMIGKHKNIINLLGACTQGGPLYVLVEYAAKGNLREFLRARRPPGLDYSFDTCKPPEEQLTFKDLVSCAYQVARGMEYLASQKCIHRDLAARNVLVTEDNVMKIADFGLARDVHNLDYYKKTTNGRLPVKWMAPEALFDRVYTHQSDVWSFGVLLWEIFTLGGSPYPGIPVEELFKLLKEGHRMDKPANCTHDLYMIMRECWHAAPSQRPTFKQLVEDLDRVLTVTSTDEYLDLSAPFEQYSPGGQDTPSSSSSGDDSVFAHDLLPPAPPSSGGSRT
# experimental details: pIC50, kinobeads binding competition
# cond: cell material: Lysate mix
attribute measured: pIC50

The examples below pair each entry with its known result.
{"columns": ["compound", "attribute measured", "result"],
 "data": [
  ["O=C(NCCNC(=O)c1cc(Nc2cc(C3CC3)[nH]n2)nc(N2CCN(Cc3ccc(S(=O)(=O)F)cc3)CC2)n1)OC1CC/C=C/CCC1 (stereo unspecified)", "pIC50", "< 4.52"],
  ["CCNC(=O)c1cc(Nc2cc(C3CC3)[nH]n2)nc(N2CCN(Cc3ccc(S(=O)(=O)F)cc3)CC2)n1", "pIC50", 5.04],
  ["Cc1cc(Nc2cc(C(=O)NCCNC(=O)OC3CC/C=C/CCC3)nc(N3CCN(Cc4ccc(S(=O)(=O)F)cc4)CC3)n2)n[nH]1 (stereo unspecified)", "pIC50", "< 4.52"],
  ["C#CCNC(=O)c1cc(Nc2cc(C3CC3)[nH]n2)nc(N2CCN(Cc3ccc(S(=O)(=O)F)cc3)CC2)n1", "pIC50", "< 4.52"]
]}

Request the reported pIC50 associated with CCNC(=O)c1cc(Nc2cc(C)[nH]n2)nc(N2CCN(Cc3ccc(S(=O)(=O)F)cc3)CC2)n1
< 4.52

# iterate: C#CCNC(=O)c1cc(Nc2cc(C)[nH]n2)nc(N2CCN(Cc3ccc(S(=O)(=O)F)cc3)CC2)n1
< 4.52
